experiment: Cytotoxicity against human HeLa cells assessed as alterations in cell morphology by microscopic analysis; format: cell-based
OBSERVED_PROPERTY: MCC (µM)

CC1(C)N=C(N)N=C(N)N1c1cccc(C(F)(F)F)c1 : 20

###

assay: cells; conditions: Influenza A virus, MDCK
pEC50: −log10 of the molar value.
// values below are reported pEC50
OBSERVED_PROPERTY: pEC50

CC1N=C(N)N=C(N)N1c1ccc(Cl)cc1 (centres undefined) : < 4.08
CC(C)C1(C)N=C(N)N=C(N)N1c1ccc(Cl)cc1 (centres undefined) : 4.48
CC1(C)N=C(N)N=C(N)N1c1ccc([N+](=O)[O-])cc1 : < 4.08
[H]/N=C(\N/C(=N/[H])Nc1ccc(Cl)cc1)NC(C)C : < 4.08
NC1=NC2(CCCCC2)N(c2cccc(Cl)c2)C(N)=N1 : < 4.00
Cc1ccc(N2C(N)=NC(N)=NC2(C)C)cc1 : 4.28
CCCC1N=C(N)N=C(N)N1c1ccc(Cl)cc1 (centres undefined) : < 4.08
CC1(C)N=C(N)N=C(Nc2ccc(Cl)cc2)N1 : < 4.08
CCOC(=O)c1ccc(N2C(N)=NC(N)=NC2(C)C)cc1 : < 4.08
CC(=O)N[C@H]1[C@H]([C@H](O)[C@H](O)CO)OC(C(=O)O)=C[C@@H]1N=C(N)N : 5.64
NC1=NC2(CCCC2)N(c2cccc(Cl)c2)C(N)=N1 : < 4.00
CC1(C)N=C(N)N=C(N)N1c1ccccc1Cl : 4.47
CC1(C)N=C(N)N=C(N)N1c1cccc(Br)c1 : < 4.00
CC1(C)N=C(N)N=C(N)N1c1cc(C(F)(F)F)cc(C(F)(F)F)c1 : < 4.00
NC1=NC2(CCCCC2)N(c2cccc(C(F)(F)F)c2)C(N)=N1 : < 4.00
NC1=NC2(CCCCC2)N(c2ccc(Cl)cc2)C(N)=N1 : 5.00
NC1=NC(c2ccccc2)N(c2ccc(Cl)cc2)C(N)=N1 (centres undefined) : < 4.08
CCc1nc(N)nc(N)c1-c1ccc(Cl)cc1 : < 4.08
NC1=NC2(CCCC2)N(c2ccc(Cl)cc2)C(N)=N1 : < 4.08
CC1(C)N=C(N)N=C(N)N1c1ccc(Br)cc1 : 4.41
CC1(C)N=C(N)N=C(N)N1c1ccc(Cl)c(Cl)c1 : 5.85
N=C(N)NC(=N)Nc1ccc(Cl)cc1 [4-CHLOROPHENYLBIGUANIDE] : < 4.08
CC1(C)N=C(N)N=C(N)N1c1ccc(Cl)cc1Cl : ≤ 4.08
CCC1(C)N=C(N)N=C(N)N1c1ccc(Cl)cc1 (centres undefined) : < 4.08
